- Study System: T1, nSR100 (Mus musculus, UniProt Q8BKA3)
- T1 construct: host or cells: mouse N2A cells
- T1 sequence (Q8BKA3 1-608): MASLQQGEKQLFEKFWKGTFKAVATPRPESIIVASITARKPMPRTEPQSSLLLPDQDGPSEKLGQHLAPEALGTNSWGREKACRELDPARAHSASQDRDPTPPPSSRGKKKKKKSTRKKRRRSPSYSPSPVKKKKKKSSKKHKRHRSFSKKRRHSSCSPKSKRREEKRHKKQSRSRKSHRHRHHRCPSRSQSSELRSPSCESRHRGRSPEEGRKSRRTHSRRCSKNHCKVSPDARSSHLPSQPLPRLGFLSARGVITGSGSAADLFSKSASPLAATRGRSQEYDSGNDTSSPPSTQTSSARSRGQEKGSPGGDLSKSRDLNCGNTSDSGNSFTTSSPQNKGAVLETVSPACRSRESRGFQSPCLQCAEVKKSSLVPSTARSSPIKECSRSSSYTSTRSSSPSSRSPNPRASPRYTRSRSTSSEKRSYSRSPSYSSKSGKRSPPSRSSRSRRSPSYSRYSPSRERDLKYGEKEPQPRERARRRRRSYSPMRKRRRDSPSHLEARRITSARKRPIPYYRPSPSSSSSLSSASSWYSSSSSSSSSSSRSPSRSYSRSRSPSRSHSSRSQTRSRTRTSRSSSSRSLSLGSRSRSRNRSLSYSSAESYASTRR
- Assay Comment: AP-MS nSR100 interaction partners from mouse N2A cells (Table 5)
- Format: binding
- Condition Set: bait Srrm4, biological replicate 2 (second number of the cell), AP-MS
Metric: Spectra (number of spectra for the prey in the purification of the bait)

molecule="U2af1 (protein, UniProt Q9D883 2-239, looked up) Splicing factor U2AF 35 kDa …: AEYLASIFGTEKDKVNCSFYFKIGACRHGDRCSRLHNKPTFSQTIALLNIYRNPQNSSQSADGLRCAVSDVEMQEHYDEFFEEVFTEMEEKYGEVEEMNVCDNLGDHLVGNVYVKFRREEDAEKAVIDLNNRWFNGQPIHAELSPVTDFREACCRQYEMGECTRGGFCNFMHLKPISRELRRELYGRRRKKHRSRSRSRERRSRSRDRGRGGGGGGGGGGGRERDRRRSRDRERSGRF" result=24
